# experimentalSystem: PXR (Nuclear receptor subfamily 1 group I member 2) (Homo sapiens, UniProt O75469)
# Sequence (O75469 whole entry): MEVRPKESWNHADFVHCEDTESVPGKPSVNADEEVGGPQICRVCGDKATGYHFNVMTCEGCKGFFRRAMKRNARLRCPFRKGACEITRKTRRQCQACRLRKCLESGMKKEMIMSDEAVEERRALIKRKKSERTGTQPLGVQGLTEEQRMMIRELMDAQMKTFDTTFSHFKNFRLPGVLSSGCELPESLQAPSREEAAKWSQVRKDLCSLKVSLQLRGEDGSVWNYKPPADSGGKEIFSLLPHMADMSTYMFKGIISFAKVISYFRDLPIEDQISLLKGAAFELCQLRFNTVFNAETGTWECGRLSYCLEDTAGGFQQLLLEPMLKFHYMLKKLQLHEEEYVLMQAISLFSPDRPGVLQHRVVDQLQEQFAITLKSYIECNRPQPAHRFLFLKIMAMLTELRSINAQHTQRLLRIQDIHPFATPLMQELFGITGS
# methodNotes: Agonist activity at PXR (unknown origin) at 20 uM by AlphaScreen assay relative to T0901317
# particulars: read-out: Activity
quantity: activity at 20 µM

# return recorded activity at 20 µM for entry c1ccc([C@H]2Nc3c(ccc4c3CCCC4)[C@@H]3OCC[C@H]23)cc1 (racemic)
< 25%

# return recorded activity at 20 µM for entry c1cc([C@H]2Nc3c(ccc4c3CCCC4)[C@@H]3OCC[C@H]23)cs1 (racemic)
25 to 50%

# return recorded activity at 20 µM for entry CC(C)(C)OC(=O)N1CC[C@@H]2[C@H](c3ccccc3)Nc3c(ccc4c3CCCC4)[C@@H]21 (racemic)
50 to 75%

# return recorded activity at 20 µM for entry c1ccc([C@@H]2Nc3c(ccc4c3CCCC4)[C@@H]3OCC[C@H]23)cc1 (racemic)
25 to 50%

# return recorded activity at 20 µM for entry CC(C)(C)OC(=O)N1CCC[C@@H]2[C@@H](c3ccco3)Nc3c(ccc4c3CCCC4)[C@@H]21 (racemic)
25 to 50%

# return recorded activity at 20 µM for entry CC(C)(C)OC(=O)N1CC[C@@H]2[C@H](c3ccco3)Nc3c(ccc4c3CCCC4)[C@@H]21 (racemic)
75 to 100%

# return recorded activity at 20 µM for entry CC(C)(C)OC(=O)N1CCC[C@@H]2[C@H](c3ccsc3)Nc3c(ccc4c3CCCC4)[C@@H]21 (racemic)
50 to 75%

# return recorded activity at 20 µM for entry c1coc([C@H]2Nc3c(ccc4c3CCCC4)[C@@H]3OCCC[C@H]23)c1 (racemic)
< 25%

# return recorded activity at 20 µM for entry c1coc([C@@H]2Nc3c(ccc4c3CCCC4)[C@@H]3OCC[C@H]23)c1 (racemic)
50 to 75%

# return recorded activity at 20 µM for entry c1ccc([C@@H]2Nc3c(ccc4c3CCCC4)[C@@H]3OCCC[C@H]23)cc1 (racemic)
< 25%

# return recorded activity at 20 µM for entry c1cc([C@@H]2Nc3c(ccc4c3CCCC4)[C@@H]3OCC[C@H]23)cs1 (racemic)
75 to 100%

# return recorded activity at 20 µM for entry c1cc([C@@H]2Nc3c(ccc4c3CCCC4)[C@@H]3NCC[C@H]23)cs1 (racemic)
< 25%

# return recorded activity at 20 µM for entry CC(C)(C)OC(=O)N1CC[C@H]2[C@@H](c3ccsc3)Nc3c(ccc4c3CCCC4)[C@H]21
50 to 75%

# return recorded activity at 20 µM for entry CC(C)(C)OC(=O)N1CC[C@@H]2[C@@H](c3ccccc3)Nc3c(ccc4c3CCCC4)[C@@H]21 (racemic)
< 25%

# return recorded activity at 20 µM for entry c1csc([C@H]2Nc3c(ccc4c3CCCC4)[C@@H]3OCC[C@H]23)c1 (racemic)
< 25%

# return recorded activity at 20 µM for entry CC(C)(C)OC(=O)N1CCC[C@@H]2[C@@H](c3ccccc3)Nc3c(ccc4c3CCCC4)[C@@H]21 (racemic)
< 25%

# return recorded activity at 20 µM for entry c1ccc([C@H]2Nc3c(ccc4c3CCCC4)[C@@H]3OCCC[C@H]23)cc1 (racemic)
< 25%

# return recorded activity at 20 µM for entry CC(C)(C)OC(=O)N1CCC[C@@H]2[C@H](c3ccccc3)Nc3c(ccc4c3CCCC4)[C@@H]21 (racemic)
< 25%

# return recorded activity at 20 µM for entry c1cc([C@@H]2Nc3c(ccc4c3CCCC4)[C@@H]3NCCC[C@H]23)cs1 (racemic)
< 25%

# return recorded activity at 20 µM for entry CC(C)(C)OC(=O)N1CCC[C@@H]2[C@H](c3ccco3)Nc3c(ccc4c3CCCC4)[C@@H]21 (racemic)
25 to 50%

# return recorded activity at 20 µM for entry c1ccc([C@@H]2Nc3c(ccc4c3CCCC4)[C@@H]3NCC[C@H]23)cc1 (racemic)
< 25%

# return recorded activity at 20 µM for entry c1coc([C@@H]2Nc3c(ccc4c3CCCC4)[C@@H]3OCCC[C@H]23)c1 (racemic)
50 to 75%

# return recorded activity at 20 µM for entry CC(C)(C)OC(=O)N1CC[C@@H]2[C@@H](c3ccco3)Nc3c(ccc4c3CCCC4)[C@@H]21 (racemic)
25 to 50%

# return recorded activity at 20 µM for entry CC(C)(C)OC(=O)N1CC[C@@H]2[C@H]1c1ccc3c(c1N[C@H]2c1ccsc1)CCCC3
75 to 100%

# return recorded activity at 20 µM for entry c1coc([C@H]2Nc3c(ccc4c3CCCC4)[C@@H]3OCC[C@H]23)c1 (racemic)
< 25%

# return recorded activity at 20 µM for entry c1coc([C@@H]2Nc3c(ccc4c3CCCC4)[C@@H]3NCC[C@H]23)c1 (racemic)
< 25%

# return recorded activity at 20 µM for entry c1coc([C@@H]2Nc3c(ccc4c3CCCC4)[C@@H]3NCCC[C@H]23)c1 (racemic)
< 25%

# return recorded activity at 20 µM for entry CC(C)(C)OC(=O)N1CCC[C@@H]2[C@@H](c3ccsc3)Nc3c(ccc4c3CCCC4)[C@@H]21 (racemic)
< 25%

# return recorded activity at 20 µM for entry c1csc([C@@H]2Nc3c(ccc4c3CCCC4)[C@@H]3OCC[C@H]23)c1 (racemic)
50 to 75%
